Biological target: PPARγ (Homo sapiens, UniProt P37231)
Sequence (P37231 whole entry): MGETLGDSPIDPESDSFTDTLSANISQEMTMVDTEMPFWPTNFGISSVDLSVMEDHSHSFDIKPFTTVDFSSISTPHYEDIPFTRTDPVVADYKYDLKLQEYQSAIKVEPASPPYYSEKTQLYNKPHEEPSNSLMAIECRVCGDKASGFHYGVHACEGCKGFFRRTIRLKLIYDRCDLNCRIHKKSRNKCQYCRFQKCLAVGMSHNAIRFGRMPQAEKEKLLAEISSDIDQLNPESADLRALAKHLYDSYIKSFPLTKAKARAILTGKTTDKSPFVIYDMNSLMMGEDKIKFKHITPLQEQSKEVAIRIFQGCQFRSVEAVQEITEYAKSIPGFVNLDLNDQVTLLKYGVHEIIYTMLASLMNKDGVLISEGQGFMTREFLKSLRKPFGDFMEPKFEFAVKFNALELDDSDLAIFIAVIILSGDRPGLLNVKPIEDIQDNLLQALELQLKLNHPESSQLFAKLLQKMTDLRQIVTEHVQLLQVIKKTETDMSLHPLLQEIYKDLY
Experiment: nuclear receptor panel assay, agonist mode
Conditions: read-out: ED50 values
pEC50: −log10 of the molar value.
readout: pEC50

Reported pEC50 for CC(C)(C)n1ncc(C(=O)Nc2ccc(Cl)c(CN3CCC(Oc4ccc(C(=O)O)cc4)CC3)c2)c1-c1ccc(F)cc1 [compound‐T1] : what is it?
< 5.00

* * *

Target: FXR (Homo sapiens, UniProt Q96RI1)
Sequence (Q96RI1 whole entry): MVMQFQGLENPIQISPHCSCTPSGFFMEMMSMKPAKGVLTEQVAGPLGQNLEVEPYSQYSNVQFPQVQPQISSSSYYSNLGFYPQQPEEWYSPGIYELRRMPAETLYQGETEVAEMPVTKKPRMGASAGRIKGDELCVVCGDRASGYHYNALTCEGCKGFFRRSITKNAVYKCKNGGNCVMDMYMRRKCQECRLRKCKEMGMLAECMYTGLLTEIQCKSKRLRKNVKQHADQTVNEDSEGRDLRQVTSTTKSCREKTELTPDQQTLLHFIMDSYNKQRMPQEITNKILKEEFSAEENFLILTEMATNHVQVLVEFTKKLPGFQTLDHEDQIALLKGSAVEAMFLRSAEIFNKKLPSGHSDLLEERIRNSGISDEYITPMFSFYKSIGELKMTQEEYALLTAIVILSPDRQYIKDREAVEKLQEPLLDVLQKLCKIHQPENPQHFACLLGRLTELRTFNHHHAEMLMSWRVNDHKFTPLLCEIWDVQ
Experiment: luciferase reporter gene assay, agonist mode
Details: read-out: ED50 values
readout: EC50

Item under review: CC(C)(C)n1ncc(C(=O)Nc2ccc(Cl)c(CN3CCC(Oc4ccc(C(=O)O)cc4)CC3)c2)c1-c1ccc(F)cc1 [compound‐T1] . Reported EC50?
> 10 µM

* * *

Biological target: FXR (Homo sapiens, UniProt Q96RI1)
Assay: luciferase reporter gene assay, antagonist mode
readout: pIC50
By convention, pIC50 is the negative base-10 log of a molar concentration.

Field request: pIC50 | item: CC(C)(C)n1ncc(C(=O)Nc2ccc(Cl)c(CN3CCC(Oc4ccc(C(=O)O)cc4)CC3)c2)c1-c1ccc(F)cc1
8.68
